Every entry's value here was drawn from ChEMBL document CHEMBL4359906.

Assay remarks: Cytotoxicity against mouse RAW264.7 cells assessed as cell proliferation at 64 uM after 1 hr by MTT assay relative to control
Type: cell-based
Reported conditions: read-out: Activity
Experimental readout: viability at 1 h, 64 µM

>>> assay_result("CCCCCCCC(=O)NCC(=O)N[C@@H](CC(C)C)C(=O)N[C@@H](CC(C)C)C(=O)N[C@H](CCCCN)C(=O)N[C@@H](CCCNC(=N)N)C(=O)N[C@H](C(=O)N[C@H](CCCCN)C(=O)N[C@H](C(=O)N[C@@H](CC(C)C)C(=O)N[C@@H](CC(C)C)C(N)=O)[C@@H](C)O)[C@@H](C)CC")
"> 80%"

###

Below, each entry is listed alongside its reported MIC.
System: Klebsiella pneumoniae
Assay remarks: Antibacterial activity against Klebsiella pneumoniae ATCC 700603 after 18 hrs by CLSI based broth microdilution method
Assay type: functional
Reported conditions: Klebsiella pneumoniae, 700603, 18 h
Experimental readout: MIC (µM)

>>> assay_result("CCCCCCCC(=O)NCC(=O)N[C@@H](CC(C)C)C(=O)N[C@@H](CC(C)C)C(=O)N[C@H](CCCCN)C(=O)N[C@@H](CCCNC(=N)N)C(=O)N[C@H](C(=O)N[C@H](CCCCN)C(=O)N[C@H](C(=O)N[C@@H](CC(C)C)C(=O)N[C@@H](CC(C)C)C(N)=O)[C@@H](C)O)[C@@H](C)CC")
64
>>> assay_result("CCCCCCCCCC(=O)NCC(=O)N[C@@H](CC(C)C)C(=O)N[C@@H](CC(C)C)C(=O)N[C@H](CCCCN)C(=O)N[C@@H](CCCNC(=N)N)C(=O)N[C@H](C(=O)N[C@H](CCCCN)C(=O)N[C@H](C(=O)N[C@@H](CC(C)C)C(=O)N[C@@H](CC(C)C)C(N)=O)[C@@H](C)O)[C@@H](C)CC")
16

###

System: Klebsiella pneumoniae
Assay remarks: Antibacterial activity against Klebsiella pneumoniae ATCC 700603 after 18 hrs by CLSI based broth microdilution method
Type: functional
Reported conditions: Klebsiella pneumoniae, 700603, 18 h
Experimental readout: MIC

>>> assay_result("CCCCCC(=O)NCC(=O)N[C@@H](CC(C)C)C(=O)N[C@@H](CC(C)C)C(=O)N[C@H](CCCCN)C(=O)N[C@@H](CCCNC(=N)N)C(=O)N[C@H](C(=O)N[C@H](CCCCN)C(=O)N[C@H](C(=O)N[C@@H](CC(C)C)C(=O)N[C@@H](CC(C)C)C(N)=O)[C@@H](C)O)[C@@H](C)CC")
"> 128 µM"
>>> assay_result("CC1(C)S[C@@H]2[C@H](NC(=O)Cc3ccccc3)C(=O)N2[C@H]1C(=O)O")
"> 128 µM"
>>> assay_result("CCCC(=O)NCC(=O)N[C@@H](CC(C)C)C(=O)N[C@@H](CC(C)C)C(=O)N[C@H](CCCCN)C(=O)N[C@@H](CCCNC(=N)N)C(=O)N[C@H](C(=O)N[C@H](CCCCN)C(=O)N[C@H](C(=O)N[C@@H](CC(C)C)C(=O)N[C@@H](CC(C)C)C(N)=O)[C@@H](C)O)[C@@H](C)CC")
"> 128 µM"

###

Test system: Staphylococcus aureus
Assay remarks: Antibacterial activity against Staphylococcus aureus ATCC 25923 after 18 hrs by CLSI based broth microdilution method
Format: functional
Reported conditions: ATCC 25923, 18 h
Where a SMILES comes first, the peptide text is derived from it. [ ]: non-standard residue; d: D form.
Experimental readout: MIC

>>> assay_result("CCCC(=O)NCC(=O)N[C@@H](CC(C)C)C(=O)N[C@@H](CC(C)C)C(=O)N[C@H](CCCCN)C(=O)N[C@@H](CCCNC(=N)N)C(=O)N[C@H](C(=O)N[C@H](CCCCN)C(=O)N[C@H](C(=O)N[C@@H](CC(C)C)C(=O)N[C@@H](CC(C)C)C(N)=O)[C@@H](C)O)[C@@H](C)CC")
"> 128 µM"
>>> assay_result("CCCCCC(=O)NCC(=O)N[C@@H](CC(C)C)C(=O)N[C@@H](CC(C)C)C(=O)N[C@H](CCCCN)C(=O)N[C@@H](CCCNC(=N)N)C(=O)N[C@H](C(=O)N[C@H](CCCCN)C(=O)N[C@H](C(=O)N[C@@H](CC(C)C)C(=O)N[C@@H](CC(C)C)C(N)=O)[C@@H](C)O)[C@@H](C)CC")
"> 128 µM"
>>> assay_result("CO[C@H]1/C=C/O[C@@]2(C)Oc3c(C)c(O)c4c(O)c(c(/C=N/N5CCN(C)CC5)c(O)c4c3C2=O)NC(=O)/C(C)=C\\C=C\\[C@H](C)[C@H](O)[C@@H](C)[C@@H](O)[C@@H](C)[C@H](OC(C)=O)[C@@H]1C")
"< 1 µM"
>>> assay_result("CN[C@H](CC(C)C)C(=O)N[C@H]1C(=O)N[C@@H](CC(N)=O)C(=O)N[C@H]2C(=O)N[C@H]3C(=O)N[C@H](C(=O)N[C@H](C(=O)O)c4cc(O)cc(O)c4-c4cc3ccc4O)[C@H](O)c3ccc(c(Cl)c3)Oc3cc2cc(c3O[C@@H]2O[C@H](CO)[C@@H](O)[C@H](O)[C@H]2O[C@H]2C[C@](C)(N)[C@H](O)[C@H](C)O2)Oc2ccc(cc2Cl)[C@H]1O")
"< 1 µM"
>>> assay_result("CC[C@H](C)[C@H](NC(=O)[C@H](CCCNC(=N)N)NC(=O)[C@@H](CCCCN)NC(=O)[C@H](CC(C)C)NC(=O)[C@H](CC(C)C)NC(=O)CN)C(=O)N[C@H](CCCCN)C(=O)N[C@H](C(=O)N[C@@H](CC(C)C)C(=O)N[C@@H](CC(C)C)C(N)=O)[C@@H](C)O (H-GLL[dK]RI[dK]TLL-NH2)")
"> 128 µM"
>>> assay_result("CC1(C)S[C@@H]2[C@H](NC(=O)Cc3ccccc3)C(=O)N2[C@H]1C(=O)O")
"< 1 µM"

###

Below, each entry is listed alongside its reported MIC.
Test system: Staphylococcus aureus
Assay remarks: Antibacterial activity against methicillin-resistant Staphylococcus aureus 936 after 18 hrs by CLSI based broth microdilution method
Assay type: functional
Reported conditions: Staphylococcus aureus, 936, 18 h
Where a SMILES comes first, the peptide text is derived from it. Bridges are numbered along the chain shown (N, C = ends). [ ]: non-standard residue; d: D form. The star is where a group is joined. X1 = CC[C@H](C)CCCCC(=O)*; Dab = NCC[C@H](N)C(=O)O
Experimental readout: MIC (µM)

>>> assay_result("CC[C@H](C)CCCCC(=O)N[C@@H](CCN)C(=O)N[C@H](C(=O)N[C@@H](CCN)C(=O)N[C@H]1CCNC(=O)[C@H]([C@@H](C)O)NC(=O)[C@H](CCN)NC(=O)[C@H](CCN)NC(=O)[C@H](CC(C)C)NC(=O)[C@@H](Cc2ccccc2)NC(=O)[C@H](CCN)NC1=O)[C@@H](C)O (X1-[Dab]T[Dab][Dab][Dab][dF]L[Dab][Dab]T; lactam 4-C)")
16
>>> assay_result("CC[C@H](C)[C@H](NC(=O)[C@H](CCCNC(=N)N)NC(=O)[C@H](CCCCN)NC(=O)[C@H](CC(C)C)NC(=O)[C@H](CC(C)C)NC(=O)CN)C(=O)N[C@@H](CCCCN)C(=O)N[C@H](C(=O)N[C@@H](CC(C)C)C(=O)N[C@@H](CC(C)C)C(N)=O)[C@@H](C)O [ANOPLIN] (H-GLLKRIKTLL-NH2)")
64
>>> assay_result("CCCCCCCC(=O)NCC(=O)N[C@@H](CC(C)C)C(=O)N[C@@H](CC(C)C)C(=O)N[C@H](CCCCN)C(=O)N[C@@H](CCCNC(=N)N)C(=O)N[C@H](C(=O)N[C@H](CCCCN)C(=O)N[C@H](C(=O)N[C@@H](CC(C)C)C(=O)N[C@@H](CC(C)C)C(N)=O)[C@@H](C)O)[C@@H](C)CC")
64

###

Tested on: Staphylococcus aureus
Assay remarks: Antibacterial activity against methicillin-resistant Staphylococcus aureus 936 after 18 hrs by CLSI based broth microdilution method
Assay type: functional
Reported conditions: Staphylococcus aureus, 936, 18 h
Where a SMILES comes first, the peptide text is derived from it. [ ]: non-standard residue; d: D form.
Experimental readout: MIC

>>> assay_result("CN[C@H](CC(C)C)C(=O)N[C@H]1C(=O)N[C@@H](CC(N)=O)C(=O)N[C@H]2C(=O)N[C@H]3C(=O)N[C@H](C(=O)N[C@H](C(=O)O)c4cc(O)cc(O)c4-c4cc3ccc4O)[C@H](O)c3ccc(c(Cl)c3)Oc3cc2cc(c3O[C@@H]2O[C@H](CO)[C@@H](O)[C@H](O)[C@H]2O[C@H]2C[C@](C)(N)[C@H](O)[C@H](C)O2)Oc2ccc(cc2Cl)[C@H]1O")
"< 1 µM"
>>> assay_result("CC[C@H](C)[C@H](NC(=O)[C@H](CCCNC(=N)N)NC(=O)[C@@H](CCCCN)NC(=O)[C@H](CC(C)C)NC(=O)[C@H](CC(C)C)NC(=O)CN)C(=O)N[C@H](CCCCN)C(=O)N[C@H](C(=O)N[C@@H](CC(C)C)C(=O)N[C@@H](CC(C)C)C(N)=O)[C@@H](C)O (H-GLL[dK]RI[dK]TLL-NH2)")
"> 128 µM"
>>> assay_result("CCCC(=O)NCC(=O)N[C@@H](CC(C)C)C(=O)N[C@@H](CC(C)C)C(=O)N[C@H](CCCCN)C(=O)N[C@@H](CCCNC(=N)N)C(=O)N[C@H](C(=O)N[C@H](CCCCN)C(=O)N[C@H](C(=O)N[C@@H](CC(C)C)C(=O)N[C@@H](CC(C)C)C(N)=O)[C@@H](C)O)[C@@H](C)CC")
"> 128 µM"
>>> assay_result("CCCCCC(=O)NCC(=O)N[C@@H](CC(C)C)C(=O)N[C@@H](CC(C)C)C(=O)N[C@H](CCCCN)C(=O)N[C@@H](CCCNC(=N)N)C(=O)N[C@H](C(=O)N[C@H](CCCCN)C(=O)N[C@H](C(=O)N[C@@H](CC(C)C)C(=O)N[C@@H](CC(C)C)C(N)=O)[C@@H](C)O)[C@@H](C)CC")
"> 128 µM"
